From: paper PMC8929047

# IC50 annotations
system: Cryptococcus neoformans VKM Y-2755; conditions: Cryptococcus neoformans; 24 h incubation, 30 °C, absorbance 594 nm; max tested 100 μM; mean ± SD, three replicates
Peptide text beside a SMILES is read from it.

compound | subject of test | IC50 [µM]
C[C@@H](O)[C@H](NC(=O)[C@H](CS)NC(=O)[C@H](Cc1ccccc1)NC(=O)[C@H](CS)NC(=O)[C@H](CCCNC(=N)N)NC(=O)[C@H](CCCNC(=N)N)NC(=O)[C@H](CCCNC(=N)N)NC(=O)[C@H](Cc1ccccc1)NC(=O)CNC(=O)[C@H](CCCNC(=N)N)NC(=O)[C@H](CS)NC(=O)[C@H](CC(N)=O)NC(=O)CNC(=O)CNC(=O)[C@@H](NC(=O)[C@@H](N)Cc1ccccc1)[C@@H](C)O)C(=O)N[C@@H](CCCNC(=N)N)C(=O)O [γ58-74SlDEFL4] (H-FTGGNCRGFRRRCFCTR-OH) | Cryptococcus neoformans VKM Y-2755 | 8.1
CC(C)C[C@H](NC(=O)[C@H](CCCNC(=N)N)NC(=O)[C@H](CS)NC(=O)[C@H](CCCNC(=N)N)NC(=O)[C@H](C)NC(=O)[C@H](C)NC(=O)[C@H](CS)NC(=O)[C@H](C)NC(=O)CN)C(=O)N[C@@H](CO)C(=O)N[C@@H](CO)C(=O)N[C@@H](CCCNC(=N)N)C(=O)N1CCC[C@H]1C(=O)N[C@@H](CCCNC(=N)N)C(=O)N[C@@H](CC(C)C)C(=O)N[C@@H](CS)C(=O)N[C@@H](Cc1c[nH]cn1)C(=O)N[C@@H](CCCNC(=N)N)C(=O)O [γ48-65SlSN2] (H-GACAARCRLSSRPRLCHR-OH) | Cryptococcus neoformans VKM Y-2755 | 4.2
CC(C)C[C@H](NC(=O)CN)C(=O)N[C@@H](CS)C(=O)N[C@@H](CCCCN)C(=O)N[C@@H](Cc1ccc(O)cc1)C(=O)N[C@@H](CCCNC(=N)N)C(=O)N[C@@H](CS)C(=O)N[C@@H](CO)C(=O)N[C@@H](CC(C)C)C(=O)N[C@@H](Cc1c[nH]cn1)C(=O)N[C@@H](CO)C(=O)N[C@@H](CCCNC(=N)N)C(=O)N1CCC[C@H]1C(=O)N[C@@H](CC(N)=O)C(=O)N[C@H](C(=O)N[C@@H](CS)C(=O)N[C@@H](Cc1ccccc1)C(=O)N[C@@H](CCCNC(=N)N)C(=O)O)C(C)C [γ89-106SlSN9] (H-GLCKYRCSLHSRPNVCFR-OH) | Cryptococcus neoformans VKM Y-2755 | 5.1

----------
tested on: Cryptococcus neoformans VKM Y-2755; conditions: Cryptococcus neoformans; 24 h incubation, 30 °C, absorbance 594 nm; max tested 100 μM; mean ± SD, three replicates
Peptide text beside a SMILES is read from it.
measure: IC50

compound | measure | result
C[C@@H](O)[C@H](NC(=O)[C@H](CS)NC(=O)[C@H](Cc1ccccc1)NC(=O)[C@H](CS)NC(=O)[C@H](CCCNC(=N)N)NC(=O)[C@H](CCCNC(=N)N)NC(=O)[C@H](CCCNC(=N)N)NC(=O)[C@H](Cc1ccccc1)NC(=O)CNC(=O)[C@H](CCCNC(=N)N)NC(=O)[C@H](CS)NC(=O)[C@H](CC(=O)O)NC(=O)CNC(=O)CNC(=O)[C@H](CO)NC(=O)[C@@H](N)Cc1ccccc1)C(=O)N[C@@H](CCCNC(=N)N)C(=O)O [γ58-74SlDEFL2] (H-FSGGDCRGFRRRCFCTR-OH) | IC50 | 11.5 µM
